assay: BSK_3C_Vis: BioMAP Diversity Plus: 3C Assay for Morphology Visualization (AID 2283025); conditions: primary human endothelial cells (HUVEC);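 further: fitted both ways so gain or loss versus DMSO counts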
The source made the active and inactive calls. How the source made its calls: active means hit-call score of the fitted dose curve at least 0.9, where 1 is the maximum; inactive means score below 0.9.
Returns: one label drawn from 1 (active), -1 (inactive)

[[record]]
molecule = "O=C(O)CCN(C1(C(=O)NO)CCCC1)S(=O)(=O)c1ccc(Oc2ccc(F)cc2)cc1"
group = -1

[[record]]
molecule = "CCC(C)(C)C(=O)O[C@H]1C[C@@H](C)C=C2C=C[C@H](C)[C@H](CC[C@@H]3C[C@@H](O)CC(=O)O3)[C@H]21"
group = 1

[[record]]
molecule = "Clc1nc(Cl)c(Cl)c(Cl)c1Cl"
group = 1

[[record]]
molecule = "Cc1ccc(O)cc1"
group = -1

[[record]]
molecule = "NC(=O)NO"
group = -1


Problem: Record request — test call for CC(=O)OC[C@H]1O[C@@](COC(C)=O)(O[C@H]2O[C@H](COC(C)=O)[C@@H](OC(C)=O)[C@H](OC(C)=O)[C@H]2OC(C)=O)[C@@H](OC(C)=O)[C@@H]1OC(C)=O
Result: -1

Problem: Record request — test call for Fc1ccccc1[C@@H](F)COC1CCC(Nc2ncnc3[nH]ncc23)CC1 (stereo partly drawn)
Result: 1

Source: PubChem BioAssay (EPA / NIEHS)
